Where these numbers come from: patent US20050074777A1

Molecular target: ER-X (plasma-membrane estrogen binding site of P7 ERKO and wild-type neocortex)
Test: 3H-estradiol saturation binding to Percoll-purified neocortical plasma-membranes
Conditions: Percoll-purified plasma-membranes from P7 ERKO and wild-type neocortex, 50 μg/tube, 18 hours at 4° C.; read-out: equilibrium dissociation constant, Kd

smiles string: C[C@]12CC[C@@H]3c4ccc(O)cc4CC[C@H]3[C@@H]1CC[C@@H]2O
Kd: ~1.6 nM
